Taken from paper PMC8549260.

IC50 values by entry
# SYSTEM UNDER TEST: PTP1B (Homo sapiens, UniProt P18031)
# Sequence (P18031 whole entry, species assumed): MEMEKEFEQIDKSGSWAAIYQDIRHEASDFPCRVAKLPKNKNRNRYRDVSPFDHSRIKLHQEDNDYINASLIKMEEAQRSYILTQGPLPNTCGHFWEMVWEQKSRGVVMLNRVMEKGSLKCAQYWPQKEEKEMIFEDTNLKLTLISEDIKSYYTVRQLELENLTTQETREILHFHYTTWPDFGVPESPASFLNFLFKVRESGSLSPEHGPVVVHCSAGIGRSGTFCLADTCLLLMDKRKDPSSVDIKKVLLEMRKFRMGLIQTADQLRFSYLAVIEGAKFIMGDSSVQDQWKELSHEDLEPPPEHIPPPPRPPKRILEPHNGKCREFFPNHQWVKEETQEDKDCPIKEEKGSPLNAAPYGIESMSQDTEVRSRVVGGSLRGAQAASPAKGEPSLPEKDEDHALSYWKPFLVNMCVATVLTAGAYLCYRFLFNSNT
# TEST: Protein tyrosine phosphatase 1B inhibition
# Format: biochemical
# Protocol: The solutions were then incubated for 40 min at 27 °C and absorbances were recorded at 405 nm using microplate reader. The experiments were repeated three times and percent inhibitions followed by IC50 values were recorded accordingly.

Cc1c(C)c2c(c(C)c1O)CCC(C)(CCCC(C)CCCC(C)CCCC(C)C)O2 (stereo not drawn) :: < 72.6 µM
CC(C)=CC(=O)CC(C)c1ccc(C)cc1 (stereo not drawn) :: < 144 µM

Now look at this one.
The recorded IC50 for CCCC/C=C/C=O is < 279 µM

---

# SYSTEM UNDER TEST: α-amylase (Homo sapiens, UniProt P04746)
# Sequence (P04746 16-511): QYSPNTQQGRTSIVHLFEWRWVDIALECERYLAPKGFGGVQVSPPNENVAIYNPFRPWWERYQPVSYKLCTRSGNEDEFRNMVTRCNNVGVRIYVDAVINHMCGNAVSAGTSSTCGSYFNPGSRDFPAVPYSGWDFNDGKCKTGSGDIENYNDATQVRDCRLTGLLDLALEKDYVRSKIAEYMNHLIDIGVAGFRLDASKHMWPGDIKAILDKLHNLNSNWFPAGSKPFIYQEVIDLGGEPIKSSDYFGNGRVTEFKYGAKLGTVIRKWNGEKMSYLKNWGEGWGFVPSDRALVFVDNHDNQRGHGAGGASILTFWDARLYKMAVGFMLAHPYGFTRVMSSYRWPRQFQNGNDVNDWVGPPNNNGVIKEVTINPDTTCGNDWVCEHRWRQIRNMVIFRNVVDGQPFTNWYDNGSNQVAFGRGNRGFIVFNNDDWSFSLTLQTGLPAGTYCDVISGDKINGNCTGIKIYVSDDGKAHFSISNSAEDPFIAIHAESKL
# TEST: In-vitro α-amylase inhibition
# Type: biochemical
# CONDITION DESCRIPTION: Table 3, isolated compounds series
ATTRIBUTE MEASURED: IC50

CCCC/C=C/C=O :: < 279 µM
CC(C)=CC(=O)CC(C)c1ccc(C)cc1 (stereo not drawn) :: < 144 µM

Now look at this one.
The recorded IC50 for Cc1c(C)c2c(c(C)c1O)CCC(C)(CCCC(C)CCCC(C)CCCC(C)C)O2 (stereo not drawn) is < 72.6 µM

---

# SYSTEM UNDER TEST: PTP1B (Homo sapiens, UniProt P18031)
# TEST: Protein tyrosine phosphatase 1B inhibition
# Format: biochemical
# CONDITION DESCRIPTION: based on molecular weight
pIC50: −log10 of the molar value.
ATTRIBUTE MEASURED: pIC50

CC(C)=CC(=O)CC(C)c1ccc(C)cc1 (stereo not drawn) :: > 3.84
Cc1c(C)c2c(c(C)c1O)CCC(C)(CCCC(C)CCCC(C)CCCC(C)C)O2 (stereo not drawn) :: > 4.14

Now look at this one.
The recorded pIC50 for CCCC/C=C/C=O is > 3.55

---

# SYSTEM UNDER TEST: UniProt P53341
# Sequence (P53341 whole entry): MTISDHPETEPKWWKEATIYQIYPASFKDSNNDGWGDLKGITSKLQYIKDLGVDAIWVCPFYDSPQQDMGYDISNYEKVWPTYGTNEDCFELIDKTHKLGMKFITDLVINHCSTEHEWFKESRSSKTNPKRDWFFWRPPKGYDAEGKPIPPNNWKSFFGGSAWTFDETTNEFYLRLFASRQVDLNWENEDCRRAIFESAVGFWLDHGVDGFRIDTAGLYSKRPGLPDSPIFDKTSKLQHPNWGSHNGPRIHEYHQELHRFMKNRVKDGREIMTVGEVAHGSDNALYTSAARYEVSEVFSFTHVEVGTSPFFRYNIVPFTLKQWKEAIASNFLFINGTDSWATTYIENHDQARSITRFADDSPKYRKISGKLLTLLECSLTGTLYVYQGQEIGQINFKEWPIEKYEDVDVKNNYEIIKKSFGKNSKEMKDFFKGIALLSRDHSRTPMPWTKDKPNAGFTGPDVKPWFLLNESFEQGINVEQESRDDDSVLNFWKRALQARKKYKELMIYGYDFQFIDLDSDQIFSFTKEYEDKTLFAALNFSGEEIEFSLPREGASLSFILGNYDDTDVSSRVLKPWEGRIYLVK
# TEST: biochemical
# CONDITION DESCRIPTION: read-out: α-Glucosidase Percent Inhibition (mean ± SEM)
ATTRIBUTE MEASURED: inhibition at 500 µg/mL (%)
Write the answer as a number in %, unit excluded.

// below: answered compounds
CC(C)=CC(=O)CC(C)c1ccc(C)cc1 (stereo not shown) :: 55.6
CCCC/C=C/C=O :: 76.8
Cc1c(C)c2c(c(C)c1O)CCC(C)(CCCC(C)CCCC(C)CCCC(C)C)O2 (stereo not shown) :: 78.3

Now look at this one.
The recorded inhibition at 500 µg/mL for C[C@H]1O[C@H](O[C@H]2[C@H](O)[C@@H](O)[C@@H](O[C@H]3[C@H](O)[C@@H](O)C(O)O[C@@H]3CO)O[C@@H]2CO)[C@H](O)[C@@H](O)[C@@H]1N[C@H]1C=C(CO)[C@@H](O)[C@H](O)[C@H]1O (stereo partly shown) [Acarbose, reference compound] is 87.1
